test: AP1 Signaling Pathway (AID 357); settings: ME-180 (cervical carcinoma) AP-1-bla reporter, EGF-induced, beta-lactamase ratio, 5 h; at 7.69 µM (top of the series) unless noted;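 note: ME-180 reporter cells stimulated with EGF at its EC50 level; % is set by controls: 0 for no effect and ±100 for the full control effect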
Results filed as inconclusive are left out. Active and inactive are the calls of the source. Calls come from the whole dose curve; as a rule, active = well fitted curve in either direction with a large enough effect (not every such curve was filed as active); inconclusive = small, poorly fitted or top-dose-only effect, or another doubt; inactive = flat fitted curve, though single readings scatter.
For each record, write down the corresponding activity change, negative = inhibition.

- compound: "Cc1ncc(COP(=O)(O)O)c(C)c1O"
  assay readout: "activity change, negative = inhibition"
  result: "9.96% (inactive)"
- compound: "COc1ccccc1-c1nc(NC2CC2)c2ccccc2n1"
  assay readout: "activity change, negative = inhibition"
  result: "-2.64% (inactive)"
- compound: "COCCn1c(=O)c(-c2cccs2)nc2cnc(Oc3ccccc3)nc21"
  assay readout: "activity change, negative = inhibition"
  result: "16.7% (inactive)"

For every item in the list below, what is its measured activity change, negative = inhibition?
1. CCNc1ncc2ncc(=O)n(Cc3ccc(F)cc3)c2n1
2. Clc1ccccc1-c1nc(-n2ccnc2)c2ccccc2n1
3. CC(=O)N1CCC2(CCCN(c3ccc(-c4ccccc4)cc3)C2)CC1
4. CC(C)OC(=O)C(C#N)c1nc2ccccc2nc1N1CCCC1 (stereo unspecified)

Result:
["-23.6% (inactive)", "-5.23% (inactive)", "-10.1% (inactive)", "8.73% [at 17.2 µM] (inactive)"]

Count: 7. Required value per item: activity change, negative = inhibition.
1. c1ccc2c(NCCN3CCOCC3)nc(-c3ccoc3)nc2c1
2. O=C1c2ccccc2C(=O)C1c1ccc2ccccc2n1
3. Cc1noc(C)c1-c1nc(N2CCN(C)CC2)c2ccccc2n1
4. c1ccc(CNc2nc(-c3cccnc3)nc3ccccc23)cc1
5. COc1ccc(Oc2ncc3nc(-c4ccc(F)cc4)c(=O)n(CCC#N)c3n2)cc1
6. CN(C)C(=O)c1ccc(-c2nc(N3CCOCC3)c3ccccc3n2)cc1
7. CN1CCN(c2ncc3nc(CCc4ccccc4)c(=O)n(CCc4ccccc4)c3n2)CC1

Result:
["1.61% (inactive)", "13% [at 17.2 µM] (inactive)", "28.9% (inactive)", "-20.2% (inactive)", "-16.1% (inactive)", "0.443% (inactive)", "-6.08% (inactive)"]

Provide activity change, negative = inhibition for all items below, preserving their order.
1. COc1ccccc1CNc1ncncc1-c1ccccc1Cl
2. Cc1cccc(CNc2ncncc2-c2ccccc2C)c1

Result:
1. -2.69% (inactive)
2. -10% (inactive)

Parameters: items (list). Returns: activity change, negative = inhibition for each item.
1. O=c1c(CCc2ccccc2)nc2cnc(Nc3ccccc3)nc2n1C[C@H]1CCCO1
2. CN1CCN(c2ncc3nc(-c4cn(C)c5ccccc45)c(=O)n(C[C@H]4CCCO4)c3n2)CC1
3. COc1ccc(Oc2ncc3nc(C)c(=O)n(Cc4cccs4)c3n2)cc1
4. COC(=O)C1CCN(c2nc3ccccc3nc2C(C#N)C(=O)NCCc2ccccc2)CC1 (stereo unspecified)
5. COc1ccc(-c2nc3cnc(Oc4cccc(Cl)c4)nc3n(C[C@H]3CCCO3)c2=O)cc1
6. COc1cccc(Cn2c(=O)cnc3cnc(N(C)C)nc32)c1
7. CN1CCN(c2ncc3nc(-c4cccc(C#N)c4)c(=O)n(CCc4ccccc4)c3n2)CC1
8. COc1ccc(CNc2nc(-c3cccnc3)nc3ccccc23)c(OC)c1

Result:
1: 16.4% (inactive); 2: -8.04% (inactive); 3: 4.45% (inactive); 4: -19.5% [at 17.2 µM] (inactive); 5: -13.7% (inactive); 6: -10.4% (inactive); 7: 11.8% (inactive); 8: -16.7% (inactive)

====

target: Rap guanine nucleotide exchange factor 3 (Homo sapiens) (UniProt O95398); assay: Confirmatory qHTS for antagonist of cAMP-regulated guanine nucleotide exchange factor 3 (EPAC1) (AID 1645880); settings: EPAC1 Rap1B-BODIPY-GDP exchange, fluorescence; note: nearly all actives have a fitted effect of over 55% in size
Sequence (O95398 whole entry, looked up): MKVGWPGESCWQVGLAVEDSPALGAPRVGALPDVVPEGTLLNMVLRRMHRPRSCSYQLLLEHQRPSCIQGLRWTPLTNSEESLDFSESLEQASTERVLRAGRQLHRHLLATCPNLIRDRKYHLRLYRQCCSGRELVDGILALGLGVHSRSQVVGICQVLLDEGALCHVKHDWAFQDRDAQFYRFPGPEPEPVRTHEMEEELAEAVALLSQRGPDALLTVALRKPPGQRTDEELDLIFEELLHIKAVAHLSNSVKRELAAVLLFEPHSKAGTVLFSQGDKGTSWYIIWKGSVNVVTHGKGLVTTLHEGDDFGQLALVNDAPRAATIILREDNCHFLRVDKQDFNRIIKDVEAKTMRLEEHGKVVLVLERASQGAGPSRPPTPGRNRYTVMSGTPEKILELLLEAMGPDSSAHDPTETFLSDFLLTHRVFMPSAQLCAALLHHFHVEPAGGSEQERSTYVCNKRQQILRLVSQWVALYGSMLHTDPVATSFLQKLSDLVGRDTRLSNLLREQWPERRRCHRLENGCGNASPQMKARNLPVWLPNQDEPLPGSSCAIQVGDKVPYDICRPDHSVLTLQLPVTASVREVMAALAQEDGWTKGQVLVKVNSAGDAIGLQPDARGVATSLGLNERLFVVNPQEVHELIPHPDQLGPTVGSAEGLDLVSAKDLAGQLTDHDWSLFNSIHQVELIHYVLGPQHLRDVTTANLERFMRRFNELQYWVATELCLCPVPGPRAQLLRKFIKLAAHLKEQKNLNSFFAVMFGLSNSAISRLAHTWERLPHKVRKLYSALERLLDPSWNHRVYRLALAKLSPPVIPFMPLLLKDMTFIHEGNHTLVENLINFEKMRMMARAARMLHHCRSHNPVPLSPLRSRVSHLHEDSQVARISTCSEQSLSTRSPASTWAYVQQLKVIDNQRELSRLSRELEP
Records with an inconclusive call do not appear. The source made the active and inactive calls. Calls come from the whole dose curve; as a rule, active = well fitted inhibition curve with a large enough effect; inconclusive = small, poorly fitted or top-dose-only effect; inactive = no such curve, though single readings can be large or run the other way.
Would you mind answering with one of these outcomes? active, inactive

- smiles input: "CCN(CC(=O)NCc1cccs1)C(=O)c1ccc(S(=O)(=O)Nc2ccccc2)cc1"
  study system: "Rap guanine nucleotide exchange factor 3 (Homo sapiens) (UniProt O95398)"
  category label: "inactive"
- smiles input: "O=[N+]([O-])c1ccc2nc(NS(=O)(=O)c3ccc(F)cc3)sc2c1"
  study system: "Rap guanine nucleotide exchange factor 3 (Homo sapiens) (UniProt O95398)"
  category label: "active"
- smiles input: "COc1c(S(=O)(=O)N2CCCC2)ccc(Cl)c1Cl"
  study system: "Rap guanine nucleotide exchange factor 3 (Homo sapiens) (UniProt O95398)"
  category label: "inactive"

Request: Assay result, entry `O=C(OCCN1C(=O)c2cccc3c(N4CCOCC4)ccc(c23)C1=O)c1ccccc1Cl` — outcome?
Result: inactive

Request: Returns: the outcome recorded for `Cc1ccc(Nc2cc(C)nc3c(C)ccc([N+](=O)[O-])c23)cc1` in this assay.
Result: inactive

Request: Name the outcome recorded for `O=C(NN=Cc1c(O)ccc2ccccc12)c1ccncc1` in the assay.
Result: inactive

====

molecular target: Rap guanine nucleotide exchange factor 4 (Homo sapiens) (UniProt Q8WZA2); test: Confirmatory qHTS for antagonist of cAMP-regulated guanine nucleotide exchange factor 4 (EPAC2) (AID 1645885); conditions: EPAC2 Rap1B-BODIPY-GDP exchange fluorescence, biochemical; series mostly up to 12.7 µM; note: nearly all actives have a fitted effect of over 25% in size
Sequence (Q8WZA2 whole entry, looked up): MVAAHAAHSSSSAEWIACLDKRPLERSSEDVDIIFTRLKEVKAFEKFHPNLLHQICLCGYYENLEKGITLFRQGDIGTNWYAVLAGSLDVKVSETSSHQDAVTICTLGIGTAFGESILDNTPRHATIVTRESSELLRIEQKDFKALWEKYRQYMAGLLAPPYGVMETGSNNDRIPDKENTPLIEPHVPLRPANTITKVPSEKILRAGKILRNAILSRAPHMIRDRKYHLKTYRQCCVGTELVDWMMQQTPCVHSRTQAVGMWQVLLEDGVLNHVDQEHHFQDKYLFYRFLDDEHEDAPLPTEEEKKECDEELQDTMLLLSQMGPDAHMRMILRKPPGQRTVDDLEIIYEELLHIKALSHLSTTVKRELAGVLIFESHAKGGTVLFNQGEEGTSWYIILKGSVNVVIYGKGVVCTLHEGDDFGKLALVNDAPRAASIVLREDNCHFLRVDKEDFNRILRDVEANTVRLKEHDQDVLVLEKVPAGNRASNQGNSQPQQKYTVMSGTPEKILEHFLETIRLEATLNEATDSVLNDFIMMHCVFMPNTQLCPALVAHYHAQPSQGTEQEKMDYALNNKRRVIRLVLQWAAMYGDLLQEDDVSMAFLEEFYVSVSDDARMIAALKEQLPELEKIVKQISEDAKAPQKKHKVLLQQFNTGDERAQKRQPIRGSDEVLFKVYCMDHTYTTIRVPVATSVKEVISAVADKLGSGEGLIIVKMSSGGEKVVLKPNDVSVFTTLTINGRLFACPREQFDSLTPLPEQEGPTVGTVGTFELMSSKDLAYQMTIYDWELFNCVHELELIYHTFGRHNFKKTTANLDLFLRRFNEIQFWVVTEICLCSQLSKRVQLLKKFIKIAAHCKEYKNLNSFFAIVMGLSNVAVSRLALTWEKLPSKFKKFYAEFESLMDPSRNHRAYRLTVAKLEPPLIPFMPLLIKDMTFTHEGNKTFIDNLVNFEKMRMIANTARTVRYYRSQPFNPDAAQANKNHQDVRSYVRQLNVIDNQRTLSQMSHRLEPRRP
Inconclusive results are not listed. Activity calls are given as the source filed them. Calls come from the whole dose curve; as a rule, active = well fitted inhibition curve with a large enough effect; inconclusive = small, poorly fitted or top-dose-only effect; inactive = no such curve, though single readings can be large or run the other way.
Hello, when you answer, please use one of the following outcomes: 1 (active), 0 (inactive)

Field: example entries. Status: answers known.
- compound: "Cc1ccc(C(=O)c2cn(Cc3cccc(C)c3)c3nc(C)ccc3c2=O)cc1"
  study system: "Rap guanine nucleotide exchange factor 4 (Homo sapiens) (UniProt Q8WZA2)"
  category label: 0
- compound: "CCO[C@@H]1OC(C(=O)N2CCN(Cc3ccc4c(c3)OCO4)CC2)=C[C@H](C2CCCCC2)[C@H]1CCCO"
  study system: "Rap guanine nucleotide exchange factor 4 (Homo sapiens) (UniProt Q8WZA2)"
  category label: 0
- compound: "COc1cc(OC)c(-c2c3cc(O)c(=O)cc-3oc3cc(O)c(O)cc23)cc1OC"
  study system: "Rap guanine nucleotide exchange factor 4 (Homo sapiens) (UniProt Q8WZA2)"
  category label: 0

Request: What call does the record list for `COc1cc(NC(=O)c2ccnc(N)c2)cc(C(=O)Nc2cccc(C(F)(F)F)c2)c1` ?
Result: 0

Request: # lookup: test call for `CN(C)c1ccc(/C=C(\C#N)C(=O)Nc2nc3c(s2)CCN(Cc2ccccc2)C3)cc1`
Result: 0

Request: # fetch the recorded call for `Cc1ccc(NCc2nc3ccccc3n2CCOc2ccccc2)cc1` here
Result: 0

Request: State the result this test recorded for `CCc1nc2c(OCCC3CCCCC3)cccn2c1N(C)C(=O)c1ccc(C)cc1` .
Result: 0

Request: Please indicate how the test categorized `O=C(O)c1ccc(N/N=C/c2cccc(C(F)(F)F)c2)cc1` .
Result: 0

Request: Called result for `CC(=O)Nc1ccc(NC(=S)NC(=O)/C=C/c2ccco2)cc1`
Result: 0

Request: Call for entry COC(=O)C1(C)CC1(c1ccccc1)c1ccccc1 (stereo unspecified) :
Result: 0

Request: Would you mind telling me which call this test gave `CNC(=O)c1csc(Cc2c(Cl)sc3ccc(Cl)cc23)n1` ?
Result: 0

====

Molecular target: Rap guanine nucleotide exchange factor 3 (Homo sapiens)
Assay: Counterscreen qHTS for antagonist of cAMP-regulated guanine nucleotide exchange factor 3 (EPAC1) (AID 1645888);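 note: fluorescence loss as bound BODIPY-GDP is released from Rap1B; % of control where 0% means no effect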
Conditions: Rap1B-BODIPY-GDP nucleotide exchange, fluorescence; series mostly up to 154 µM
Source text: Assay Provider (PI): Xiaodong Cheng Ph.D. The University of Texas Medical Branch, […], TX MLPCN Grant: NS066510 In multi-cellular eukaryotic organisms, the effects of cAMP are transduced by two ubiquitously-expressed intracellular cAMP receptors, the classic protein kinase A/cAMP-dependent protein kinase (PKA/cAPK) and the more recently discovered exchange protein directly activated by cAMP/cAMP-regulated guanine nucleotide exchange factor (EPAC/cAMP-GEF). […]
Records with an inconclusive call do not appear. Active and inactive are the calls of the source. Calls follow the shape of the dose curve; as a rule, active = well fitted inhibition curve with a large enough effect; inconclusive = small, poorly fitted or top-dose-only effect; inactive = no such curve, though single readings can be large or run the other way.
assay readout: activity change, negative = inhibition

For orientation, consider the following solved cases.
- compound: "COc1cc(NC(=O)CCc2c(C)nc3c4c(C)cc(C)nc4nn3c2C)cc(OC)c1"
  activity change, negative = inhibition: "inactive"
- compound: "COc1cc(/C=N/NC(=O)c2cc(O)cc(O)c2)ccc1OC(=O)c1ccccc1"
  activity change, negative = inhibition: "inactive"
- compound: "COc1ccc(C(C)(NC(C)=O)c2nc(-c3cc(F)cc(F)c3)cs2)cc1 (stereo unspecified)"
  activity change, negative = inhibition: "-9.04% [at 30.8 µM] (inactive)"
- compound: "Cc1ccc(C)c(N2CCN(C(=O)CCCn3c(=O)c4cccn4c4cccnc43)CC2)c1"
  activity change, negative = inhibition: "-21.9% [at 30.8 µM] (inactive)"
- compound: "CC(=O)c1c(C)[nH]c(C(=O)OCC(=O)c2ccc3c(c2)NC(=O)CO3)c1C"
  activity change, negative = inhibition: "inactive"

List reported activity change, negative = inhibition for each of these compounds:
1. COc1cc(NC(=O)c2cccc([N+](=O)[O-])c2)ccc1NC(=O)c1ccco1
2. CC(=O)N1CCN(C(=O)c2[nH]c(C(F)(F)F)nc2-c2ccccc2)CC1

Result:
["inactive", "inactive"]

Hi team, please reply with activity change, negative = inhibition for each item in this list.
1. C[C@H]1CN([C@@H](C)CO)C(=O)c2cccc(NC(=O)C3CC3)c2O[C@H]1CN(C)S(=O)(=O)c1ccccc1
2. Cc1[nH]n(-c2ncc(-c3ccccc3)s2)c(=O)c1C(c1ccc(Br)cc1)C(C#N)C#N (stereo unspecified)
3. Cc1ccc2[nH]cc(C(c3ccccc3)c3ccc(Cl)s3)c2c1 (stereo unspecified)
4. O=C(Cn1ncc(Cl)c(Cl)c1=O)NC(=O)NC1CCCCC1

Result:
1: inactive; 2: -9.33% [at 30.8 µM] (inactive); 3: inactive; 4: -1.53% [at 30.8 µM] (inactive)

Dear reader, for each entry below, please note its activity change, negative = inhibition.
1. O=C(c1ccccc1)c1coc2ccc(O)c(Cl)c12
2. CCC1(c2ccccc2)SCC(c2ccccc2)=NC1=O (stereo unspecified)
3. CCC(CC)c1nnc(NC(=O)CSCc2c(C)noc2C)s1
4. Cn1c(SCC(=O)Nc2cccc(C(=O)O)c2)nnc1-c1cc2cc(Br)ccc2o1
5. CC(C)=CCc1c(O)cc2oc3c(CC=C(C)C)c(O)c(O)c(CC=C(C)C)c3c(=O)c2c1O
6. O=C(O)CCn1cc(/C=C\C(=O)c2ccc(Cl)cc2)c(-c2cccc(Br)c2)n1
7. Cc1ccc(C)c(Cn2cnc3ccccc3c2=O)c1

Result:
["-20.3% [at 30.8 µM] (inactive)", "inactive", "inactive", "inactive", "inactive", "0.257% [at 30.8 µM] (inactive)", "inactive"]
